The following molecules are listed with their measured IC50 values.
- STUDY_SYSTEM: recombinant DYRK1A kinase (Homo sapiens, UniProt Q13627)
- ASSAY_DETAILS: DYRK1A kinase assay (Ser/Thr 18 peptide Z-lyte FRET)
- CONDITION_SET: DYRK1A 0.25 μg/mL, ATP 15 μM, Ser/Thr peptide 18 4 μM, one hour at room temperature, 11-point dose-response from 10 μM
- Method: Representative compounds were screened using the assay procedure for DYRK1A kinase activity as described below. Each compound was dissolved in DMSO as a 10 mM stock and used to prepare compound source plates. […] The Emission ratio (Em) was calculated as a ratio of the coumarin (C) emission signal (at 445 nm)/Fluorescein (F) emission signal (at 520 nm). The percent phosphorylation was then calculated using the following formula: [1−((Em ratio×F100%)−C100%)/((C0%−C100%)+(Em ratio×(F100%−F0%)))]. […]
# number only, unit nM dropped from output

Form field IC50, entry CNc1nc(N[C@H]2CCN(C(C)=O)C[C@H]2F)nn2cc(F)c(-c3ccc4nccn4n3)c12 [Compound 53] : 2.5

Form field IC50, entry CNc1nc(N[C@H]2CCN(C3COC3)C[C@H]2F)nn2ccc(-c3ccc4nnn(CCF)c4n3)c12 [Compound 236] : 2.1

Turning now to a further molecule:
Form field IC50, entry CC(=O)N1CC[C@@H](Nc2nc(N)c3c(-c4ccc5nnn(CCF)c5n4)ccn3n2)C(F)(F)C1 [Compound 222] : 3.2

* * *

- STUDY_SYSTEM: recombinant DYRK1A kinase (Homo sapiens)
- ASSAY_DETAILS: DYRK1A kinase assay (Ser/Thr 18 peptide Z-lyte FRET)
- CONDITION_SET: DYRK1A 0.25 μg/mL, ATP 15 μM, Ser/Thr peptide 18 4 μM, one hour at room temperature, 11-point dose-response from 10 μM
Mark YES for IC50 under 3 nM, NO if at or over.

Solved cases below.
Prompt: Regarding COCCN1CC[C@H](Nc2nc(N)c3c(-c4ccc5ncn(CC(F)(F)F)c5n4)ccn3n2)[C@H](F)C1 [Compound 126] , kindly confirm whether its IC50 is beneath 3 nM.
Completion: YES

Prompt: Regarding CN1CC[C@@H](Nc2nc(N)c3c(-c4ccc5nccn5n4)c(F)cn3n2)C(F)(F)C1 [Compound 40] , kindly confirm whether its IC50 is beneath 3 nM.
Completion: YES

Prompt: Regarding CNc1nc(N[C@@H]2CCN(C)C[C@@H]2F)nn2ccc(-c3ccc4nnn(CC(F)F)c4n3)c12 [Compound 272] , kindly confirm whether its IC50 is beneath 3 nM.
Completion: NO

Prompt: Regarding CNc1nc(N[C@@H]2CCN(C)CC2(F)F)nn2cc(F)c(-c3ccc4nnn(CCF)c4n3)c12 [Compound 251] , kindly confirm whether its IC50 is beneath 3 nM.
Completion: YES

Prompt: Regarding Nc1nc(N[C@@H]2CCN(C3COC3)C[C@@H]2F)nn2ccc(-c3ccc4ncn(CC(F)F)c4n3)c12 [Compound 122] , kindly confirm whether its IC50 is beneath 3 nM.
Completion: YES

Next:
Prompt: Regarding CCn1nnc2ccc(-c3c(F)cn4nc(N[C@H]5CCN(C6COC6)C[C@H]5F)nc(NC)c34)nc21 [Compound 214] , kindly confirm whether its IC50 is beneath 3 nM.
Completion: NO

Prompt: Regarding CNc1nc(N[C@H]2CCN(C(C)=O)C[C@H]2F)nn2ccc(-c3ccc4nc(C)n(C(F)F)c4n3)c12 [Compound 134] , kindly confirm whether its IC50 is beneath 3 nM.
Completion: NO

Origin of values: patent US20250340575A1
